test system: NCI-H358 cells; test: Cell proliferation activity of NCI-H358 by CellTiter-Glo reagent; format: cell-based; settings: Homo sapiens, NCI-H358; test 8, method of test 3; read-out: IC50 of proliferation inhibitory activity of the compound on NCI-H358 cell line
ASSAY_READOUT: IC50 (nM)
Reply numerically in nM, unit not repeated.

C=CC(=O)N1CCN(c2nc(=O)n(-c3c(C)ccnc3C(C)C)c3nc(-c4c(O)cccc4F)c(F)cc23)[C@@H](C)C1 = 41
C=CC(=O)N1CCN(c2nc(=O)n(-c3c(C)ccnc3C(C)C)c3nc(-c4ccccc4C=C)c(Cl)cc23)[C@@H](C)C1 = 10
C=CC(=O)N1CCN(c2nc(=O)n(-c3c(C)ccnc3C(C)C)c3nc(-c4c(F)cccc4C=C)c(Cl)cc23)[C@@H](C)C1 = 11

# next molecule below
Request: Let me know recorded IC50 for "[2H]C([2H])=Cc1cccc(F)c1-c1nc2c(cc1Cl)c(N1CCN(C(=O)C=C)C[C@@H]1C)nc(=O)n2-c1c(C)ccnc1C(C)C" , thanks.
Result: 10

----------
test system: MIA PaCa-2 cells; test: Cell proliferation activity of MIA PaCa-2 by CellTiter-Glo reagent; format: cell-based; conditions: Homo sapiens, MIA PaCa-2; 72 h, CellTiter-Glo; read-out: IC50 value of cell proliferation inhibitory activity of the compound on MIA PaCa-2
ASSAY_READOUT: IC50

The cases that follow already have their IC50 on record.
C=CC(=O)N1C[C@H](C)N(c2nc(=O)n(-c3c(C)ccnc3C(C)C)c3nc(-c4c(F)cccc4C=C)c(Cl)cc23)[C@@H](C)C1 = < 50 nM
C=CC(=O)N1CCN(c2nc(=O)n(-c3c(C)ccnc3C(C)C)c3nc(-c4c(F)cccc4C=C)c(Cl)cc23)[C@@H](C)C1 = < 50 nM
[2H]C([2H])([2H])c1ccnc(C(C)C)c1-n1c(=O)nc(N2CCN(C(=O)C=C)C[C@@H]2C)c2cc(F)c(-c3ccccc3C=C)nc21 = < 50 nM
[2H]C([2H])=Cc1ccccc1-c1nc2c(cc1Cl)c(N1CCN(C(=O)C=C)C[C@@H]1C)nc(=O)n2-c1c(C(C)C)ccnc1C(C)C = < 50 nM
[2H]C([2H])=Cc1cccc(F)c1-c1nc2c(cc1F)c(N1CCN(C(=O)C=C)C[C@@H]1C)nc(=O)n2-c1c(C)ccnc1C(C)C = < 50 nM

Request: // Input: "[2H]C([2H])=Cc1cccc(F)c1-c1nc2c(cc1Cl)c(N1CCN(C(=O)C=C)C[C@@H]1C)nc(=O)n2-c1c(C)ccnc1C(C)C" . Output its IC50 only.
Result: < 50 nM

Request: Supply IC50 value. Item: "C=CC(=O)N1CCN(c2nc(=O)n(-c3c(C)ccnc3C(C)C)c3nc(-c4c(F)cccc4C=C)c(F)cc23)[C@@H](C)C1"
Result: < 50 nM

Request: Answer with the recorded IC50 of "[2H]C([2H])=Cc1ccccc1-c1nc2c(cc1F)c(N1CCN(C(=O)C=C)C[C@@H]1C)nc(=O)n2-c1c(C)ccnc1C(C)C" only.
Result: < 50 nM

Request: Determine its reported IC50: "[2H]C([2H])=Cc1cccc(F)c1-c1nc2c(cc1F)c(N1CCN(C(=O)C=C)C[C@@H]1C)nc(=O)n2-c1c(C([2H])([2H])[2H])ccnc1C(C)C"
Result: < 50 nM

Request: Supply measured IC50 of "[2H]C([2H])=Cc1ccccc1-c1nc2c(cc1Cl)c(N1CCN(C(=O)C=C)C[C@@H]1C)nc(=O)n2-c1c(C)ccnc1C(C)C" in your reply.
Result: < 50 nM

Request: Assign IC50 to the following record: "C=CC(=O)N1CCN(c2nc(=O)n(-c3c(C(C)C)ccnc3C(C)C)c3nc(-c4ccccc4C=C)c(Cl)cc23)[C@@H](C)C1"
Result: < 50 nM

Request: Dear colleague, please send me the reported IC50 for "[2H]C([2H])=Cc1ccccc1-c1nc2c(cc1Cl)c(N1CCN(C(=O)C=C)C[C@@H]1C)nc(=O)n2-c1c(C([2H])([2H])[2H])ccnc1C(C)C" when you can.
Result: < 50 nM

Request: Check the records and state IC50 for "[2H]C([2H])=Cc1cccc(F)c1-c1nc2c(cc1F)c(N1CCN(C(=O)C=C)C[C@@H]1C)nc(=O)n2-c1c(C(C)C)ccnc1C(C)C"
Result: < 50 nM

Request: Input "C=CC(=O)N1CCN(c2nc(=O)n(-c3c(C)ccnc3C(C)C)c3nc(-c4ccccc4C=C)c(F)cc23)[C@@H](C)C1" , output reported IC50.
Result: < 50 nM

Request: State its IC50: "C=CC(=O)N1CCN(c2nc(=O)n(-c3c(C)ccnc3C(C)C)c3nc(-c4ccccc4C=C)c(Cl)cc23)[C@@H](C)C1"
Result: < 50 nM

----------
// reported pIC50 per item
tested on: NCI-H358 cells; assay: Cell proliferation activity of NCI-H358 by CellTiter-Glo reagent; type: cell-based; details: Homo sapiens, NCI-H358, 72 h, 72 h, CellTiter-Glo; test 3; read-out: IC50 value of cell proliferation inhibitory activity of NCI-H358
pIC50: −log10 of the molar value.

Request: // Input: [2H]/C=C(\[2H])C(=O)N1CCN(c2nc(=O)n(-c3c(CC)ccnc3C(C)C)c3nc(-c4c(F)cccc4C=C)c(Cl)cc23)[C@@H](C)C1 [Compound 2-8] . Output its pIC50 only.
Result: > 7.30

Request: Report measured pIC50; entry is [2H]C([2H])=Cc1ccccc1-c1nc2c(cc1Cl)c(N1CCN(C(=O)C=C)C[C@@H]1C)nc(=O)n2-c1c(C)ccnc1C(C)C [Compound 3-16M]
Result: > 7.30

Request: Please report the measured pIC50 for [2H]C([2H])=Cc1cccc(F)c1-c1nc2c(cc1Cl)c(N1CCN(C(=O)C=C)C[C@@H]1C)nc(=O)n2-c1c(C)ccnc1C(C)C [Compound 3-12M]
Result: > 7.30

Request: Please report pIC50 for the following compound: [2H]/C=C(\[2H])C(=O)N1CCN(c2nc(=O)n(-c3c(C)ccnc3C(C)C)c3nc(-c4c(F)cccc4C=C)c(Cl)cc23)[C@@H](C)C1 [Compound 3-51]
Result: > 7.30

Request: Recall and state the measured pIC50 for [2H][C@]1(C)CN(C(=O)C=C)CCN1c1nc(=O)n(-c2c(C)ccnc2C(C)C)c2nc(-c3c(F)cccc3C=C)c(Cl)cc12 [Compound 3-49] .
Result: > 7.30

----------
Each entry below carries its recorded IC50.
tested on: NCI-H358 cells; test: Cell proliferation activity of NCI-H358 by CellTiter-Glo reagent; assay type: cell-based; details: Homo sapiens, NCI-H358, test 4, method of test 3; read-out: IC50 value of cell proliferation inhibitory activity of NCI-H358

Here is how some compounds turned out for IC50.
C=CC(=[18O])N1CCN(c2nc(=O)n(-c3c(C)ccnc3C(C)C)c3nc(-c4c(F)cccc4C=C)c(Cl)cc23)[C@@H](C)C1 = < 50 nM
C=CC(=[18O])N1CCN(c2nc(=O)n(-c3c(C)ccnc3C(C)C)c3nc(-c4ccccc4C=C)c(Cl)cc23)[C@@H](C)C1 = < 50 nM

Request: Complete the entry with IC50 for "C=CC(=[18O])N1CCN(c2nc(=O)n(-c3c(CC)ccnc3C(C)C)c3nc(-c4ccccc4C=C)c(Cl)cc23)[C@@H](C)C1"
Result: < 50 nM

----------
system: MIA PaCa-2 cells; experiment: Cell proliferation activity of MIA PaCa-2 by CellTiter-Glo reagent; format: cell-based; conditions: Homo sapiens, MIA PaCa-2; test 12, method of test 2; read-out: IC50 of proliferation inhibitory activity of the compound on MIA Paca-2 cell line
pIC50: −log10 of the molar value.
ASSAY_READOUT: pIC50

Request: Give pIC50 for "C=CC(=O)N1CCN(c2nc(=O)n(-c3c(C)ccnc3C(C)C)c3nc(-c4ccccc4C=C)c(Cl)cc23)[C@@H](C)C1"
Result: ≥ 7.82

----------
assay: Acute toxicity test, single oral dose in SD rats; type: in vivo; conditions: both sexes, rat, in vivo; SD rats, single oral gavage, 500, 1000, 2000 mg/kg; read-out: maximum tolerated dose (MTD)
MTD by entry:

C=CC(=O)N1CCN(c2nc(=O)n(-c3c(C)ccnc3C(C)C)c3nc(-c4ccccc4C=C)c(Cl)cc23)[C@@H](C)C1 = ≥ 2000 mg/kg

Attention now turns to another entry.
Request: Give me measured MTD, please, for this compound: "C=CC(=O)N1CCN(c2nc(=O)n(-c3c(C)ccnc3C(C)C)c3nc(-c4c(F)cccc4C=C)c(Cl)cc23)[C@@H](C)C1"
Result: ≥ 2000 mg/kg
